B1: scFv; the commonest letter at each place (parent)
chain 1: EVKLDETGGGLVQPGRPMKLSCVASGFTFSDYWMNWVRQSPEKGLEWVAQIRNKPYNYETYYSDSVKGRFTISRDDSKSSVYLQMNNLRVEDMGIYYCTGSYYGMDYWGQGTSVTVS
chain 2: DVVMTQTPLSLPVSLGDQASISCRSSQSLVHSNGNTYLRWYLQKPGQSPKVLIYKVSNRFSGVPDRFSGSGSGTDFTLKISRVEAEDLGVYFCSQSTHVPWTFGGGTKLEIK

Variants of: B1
Assay: yeast surface expression (ratio to wild type); higher = more expressed
Settings: format: scFv 4-4-20, heavy + light
The threshold is inclusive: yeast surface expression of exactly 0.6 counts as Fulfilled; values below receive Not fulfilled.

Mutation descriptor | Label
chain 1 M34R N35M | Fulfilled
chain 1 Y107P | Not fulfilled
chain 1 T28S F29A | Fulfilled
chain 1 F29Y M34E | Not fulfilled
chain 1 S30M M34L | Fulfilled
chain 1 F29N S30K | Fulfilled
chain 1 F29A V37P | Not fulfilled
chain 1 D31H Y32S | Fulfilled
chain 1 W108I G109F | Not fulfilled
chain 1 W36Q | Not fulfilled
chain 1 G100Q G109C | Not fulfilled
chain 1 M105K | Fulfilled
chain 1 D31N V37H | Fulfilled
chain 1 F29K | Fulfilled
chain 1 F29T S30C | Fulfilled
chain 1 T28P F29V | Fulfilled
chain 1 S30I M34N | Not fulfilled
chain 1 W108I | Fulfilled
chain 1 Y102K Y107K | Fulfilled
chain 1 D31T V37D | Not fulfilled
chain 1 G100C D106Q | Fulfilled
chain 1 T28M S30W | Fulfilled
chain 1 M105A Y107M | Fulfilled
chain 1 S101D G109H | Not fulfilled
chain 1 M105W Y107C | Not fulfilled
chain 1 D106C | Fulfilled
chain 1 G100D G104A | Not fulfilled
chain 1 S101K Y102I | Fulfilled
chain 1 S30N Y32S | Fulfilled
chain 1 Y102M G104M | Not fulfilled
chain 1 T28N V37A | Fulfilled
chain 1 D31R | Fulfilled
chain 1 W33S M34T | Not fulfilled
chain 1 G100P | Fulfilled
chain 1 S101L M105D D106L | Not fulfilled
chain 1 Y102G Y103D | Fulfilled
chain 1 S30N M34I | Fulfilled
chain 1 S30V Y32D | Fulfilled
chain 1 Y32M W33E | Fulfilled
chain 1 T28A N35C | Fulfilled
chain 1 W36S | Fulfilled
chain 1 Y32C M34Y | Fulfilled
chain 1 Y103M D106F Y107G | Not fulfilled
chain 1 G100I W108R | Fulfilled
chain 1 F29A M34R | Fulfilled
chain 1 Y103M W108A | Not fulfilled
